Target: human GLUT1 (Homo sapiens, UniProt P11166)
Construct: expressed in transfected cells
Sequence (P11166 1-492): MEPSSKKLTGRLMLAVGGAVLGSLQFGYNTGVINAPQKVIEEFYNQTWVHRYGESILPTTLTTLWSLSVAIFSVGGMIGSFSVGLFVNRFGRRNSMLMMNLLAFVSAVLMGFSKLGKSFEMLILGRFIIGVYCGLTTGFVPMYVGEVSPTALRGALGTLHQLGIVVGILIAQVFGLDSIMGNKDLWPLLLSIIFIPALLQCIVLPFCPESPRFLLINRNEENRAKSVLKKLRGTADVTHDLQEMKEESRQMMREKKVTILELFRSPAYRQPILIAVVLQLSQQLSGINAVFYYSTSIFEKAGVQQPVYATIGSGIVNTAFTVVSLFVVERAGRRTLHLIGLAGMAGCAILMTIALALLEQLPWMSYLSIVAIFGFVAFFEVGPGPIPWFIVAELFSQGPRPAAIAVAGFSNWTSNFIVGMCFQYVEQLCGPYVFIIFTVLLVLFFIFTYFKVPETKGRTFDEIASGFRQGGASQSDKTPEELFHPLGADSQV
Assay: [3H]-deoxy-D-glucose uptake assay, GLUT1
Format: cell-based
Settings: [3H]-deoxy-D-glucose uptake in HEK293 cells stably expressing human GLUT1
VALUE_TYPE: GLUT1 pIC50

These solved cases illustrate the format of a correct answer.
{"COMPOUND_STRUCTURE_STRING": "Clc1ccc(-c2nc3ccc(Cc4ccccc4)cn3c2CN2CCOCC2)cc1", "TARGET_OR_TEST_SYSTEM": "human GLUT1 (Homo sapiens, UniProt P11166)", "GLUT1 pIC50": "++ (pIC50 5.00-5.99)"}
{"COMPOUND_STRUCTURE_STRING": "NC(=O)CN1CCN(Cc2c(-c3ccc(Cl)cc3)nc3ccc(-c4ccccc4)cn23)CC1", "TARGET_OR_TEST_SYSTEM": "human GLUT1 (Homo sapiens, UniProt P11166)", "GLUT1 pIC50": "++ (pIC50 5.00-5.99)"}
{"COMPOUND_STRUCTURE_STRING": "COc1cccc(C(=O)N2CCN(Cc3c(-c4ccc(Cl)cc4)nc4ccc(-c5ccccc5)cn34)CC2)c1", "TARGET_OR_TEST_SYSTEM": "human GLUT1 (Homo sapiens, UniProt P11166)", "GLUT1 pIC50": "+++ (pIC50 ≧ 6.00)"}
{"COMPOUND_STRUCTURE_STRING": "COc1cccc(-c2nc3ccc(-c4ccccc4)cn3c2CN2CCN(C(=O)C(C)C)CC2)c1", "TARGET_OR_TEST_SYSTEM": "human GLUT1 (Homo sapiens, UniProt P11166)", "GLUT1 pIC50": "++ (pIC50 5.00-5.99)"}

Suppose we examine the compound CCS(=O)(=O)Nc1ccc2nc(-c3ccc(Cl)cc3)c(CN3CCN(C(C)=O)CC3)n2c1 ; what GLUT1 pIC50 value has been reported?
+++ (pIC50 ≧ 6.00)

====

Biological target: human GLUT1 (Homo sapiens, UniProt P11166)
Construct: expressed in transfected cells
Sequence (P11166 1-492): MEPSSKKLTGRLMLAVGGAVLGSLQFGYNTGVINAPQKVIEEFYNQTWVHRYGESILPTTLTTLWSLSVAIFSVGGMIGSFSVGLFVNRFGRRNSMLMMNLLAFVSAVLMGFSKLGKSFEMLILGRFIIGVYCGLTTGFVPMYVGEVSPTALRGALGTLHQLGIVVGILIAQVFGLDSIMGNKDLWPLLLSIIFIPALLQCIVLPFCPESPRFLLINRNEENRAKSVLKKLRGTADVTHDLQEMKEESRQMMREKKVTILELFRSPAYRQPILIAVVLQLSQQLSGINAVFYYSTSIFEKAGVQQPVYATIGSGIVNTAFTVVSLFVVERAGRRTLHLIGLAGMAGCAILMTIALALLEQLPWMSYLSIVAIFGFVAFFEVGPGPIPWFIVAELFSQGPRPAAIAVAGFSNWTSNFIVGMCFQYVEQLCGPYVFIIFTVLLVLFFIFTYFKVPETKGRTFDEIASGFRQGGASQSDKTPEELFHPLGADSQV
Assay: [3H]-deoxy-D-glucose uptake assay, GLUT1
Assay type: cell-based
Conditions: [3H]-deoxy-D-glucose uptake in HEK293 cells stably expressing human GLUT1
VALUE_TYPE: GLUT1 pIC50

{"COMPOUND": "CC(=O)N1CCN(Cc2c(-c3ccc(Cl)cc3)nc3ccc(S(=O)(=O)N(C)C)cn23)CC1 [Compound 350]", "TARGET_OR_TEST_SYSTEM": "human GLUT1 (Homo sapiens, UniProt P11166)", "REPORTED_RESULT": "+++ (pIC50 ≧ 6.00)"}
{"COMPOUND": "Fc1ccc(-c2ccc3nc(-c4ccc(Cl)cc4)c(CN4CCOCC4)n3c2)cc1 [Compound 79]", "TARGET_OR_TEST_SYSTEM": "human GLUT1 (Homo sapiens, UniProt P11166)", "REPORTED_RESULT": "+− (pIC50 < 4.00)"}
{"COMPOUND": "CCS(=O)(=O)c1ccc2nc(-c3ccc(Cl)cc3)c(CN3CCN(C(C)=O)CC3)n2c1 [Compound 385]", "TARGET_OR_TEST_SYSTEM": "human GLUT1 (Homo sapiens, UniProt P11166)", "REPORTED_RESULT": "+++ (pIC50 ≧ 6.00)"}
{"COMPOUND": "COc1cccc(-c2nc3ccc(-c4ccccc4)cn3c2CN2CCN(C(=O)c3ccc(F)cc3)CC2)c1 [Compound 49]", "TARGET_OR_TEST_SYSTEM": "human GLUT1 (Homo sapiens, UniProt P11166)", "REPORTED_RESULT": "+++ (pIC50 ≧ 6.00)"}

Suppose we examine the compound O=C(C1COC1)N1CCN(Cc2c(-c3ccc(Cl)cc3)nc3cnc(C4CC4)cn23)CC1 [Compound 274] ; what GLUT1 pIC50 value has been reported?
+++ (pIC50 ≧ 6.00)

Suppose we examine the compound O=C(C1CCOCC1)N1CCN(Cc2c(-c3ccc(Cl)cc3)nc3ccc(-c4ccccc4)cn23)CC1 [Compound 200] ; what GLUT1 pIC50 value has been reported?
+++ (pIC50 ≧ 6.00)

Suppose we examine the compound OC(c1c(-c2ccc(Cl)cc2)nc2ccc(-c3ccccc3)cn12)C1CCCN1 (stereo not shown) [Compound 245] ; what GLUT1 pIC50 value has been reported?
+− (pIC50 < 4.00)

Suppose we examine the compound O=C1CN(Cc2c(-c3ccc(Cl)cc3)nc3ccc(-c4ncon4)cn23)CCN1 [Compound 278] ; what GLUT1 pIC50 value has been reported?
++ (pIC50 5.00-5.99)

Suppose we examine the compound Cc1cc2nc(-c3ccc(Cl)cc3)c(CN3CCOCC3)n2cc1-c1ccccc1 [Compound 176] ; what GLUT1 pIC50 value has been reported?
++ (pIC50 5.00-5.99)

Suppose we examine the compound CC(=O)N1CCN(Cc2c(-c3ccc(Cl)cc3)nc3cnc(NS(C)(=O)=O)cn23)CC1 [Compound 331] ; what GLUT1 pIC50 value has been reported?
+− (pIC50 < 4.00)

====

Target: human GLUT1 (Homo sapiens)
Construct: expressed in transfected cells
Experiment: [3H]-deoxy-D-glucose uptake assay, GLUT1
Format: cell-based
Settings: [3H]-deoxy-D-glucose uptake in HEK293 cells stably expressing human GLUT1
VALUE_TYPE: GLUT1 pIC50

{"MOLECULE": "O=C(c1ccncc1)N1CCN(Cc2c(-c3ccc(Cl)cc3)nc3cnc(C4CC4)cn23)CC1 [Compound 265]", "GLUT1 pIC50": "+++ (pIC50 ≧ 6.00)"}
{"MOLECULE": "CCOC(=O)c1ccc2nc(-c3ccc(Cl)cc3)c(CN3CCOCC3)n2c1 [Compound 163]", "GLUT1 pIC50": "+ (pIC50 4.00-4.99)"}
{"MOLECULE": "N#Cc1cccc(F)c1-c1ccc2nc(-c3ccc(Cl)cc3)c(CN3CCOCC3)n2c1 [Compound 236]", "GLUT1 pIC50": "+++ (pIC50 ≧ 6.00)"}
{"MOLECULE": "CC(=O)N1CCN(Cc2c(-c3ccc(Cl)cc3Cl)nc3ccc(N4CCCS4(=O)=O)cn23)CC1 [Compound 339]", "GLUT1 pIC50": "+++ (pIC50 ≧ 6.00)"}
{"MOLECULE": "O=C(c1cnccn1)N1CCN(Cc2c(-c3ccc(Cl)cc3)nc3cnc(C4CC4)cn23)CC1 [Compound 255]", "GLUT1 pIC50": "+++ (pIC50 ≧ 6.00)"}

Suppose we examine the molecule COc1cccc(-c2nc3ccc(-c4ccccc4)cn3c2CN2CCN(C(=O)c3ccco3)CC2)c1 [Compound 51] ; what GLUT1 pIC50 value has been reported?
++ (pIC50 5.00-5.99)

Suppose we examine the molecule Cc1ccc(-c2cn3cc(-c4ccccc4)ccc3n2)cc1 [Compound 11] ; what GLUT1 pIC50 value has been reported?
+ (pIC50 4.00-4.99)

Suppose we examine the molecule N#Cc1cccc(-c2nc3ccc(-c4ccccc4)cn3c2CN2CCOCC2)c1 [Compound 100] ; what GLUT1 pIC50 value has been reported?
+ (pIC50 4.00-4.99)

Suppose we examine the molecule O=C(c1ccccc1)N1CCN(Cc2c(-c3ccc(Cl)cc3)nc3ccc(-c4ccccc4)cn23)CC1 [Compound 44] ; what GLUT1 pIC50 value has been reported?
+++ (pIC50 ≧ 6.00)

Suppose we examine the molecule Clc1ccc(-c2nc3ccc(-c4ccccc4)cn3c2CCN2CCOCC2)cc1 [Compound 342] ; what GLUT1 pIC50 value has been reported?
+− (pIC50 < 4.00)

Suppose we examine the molecule O=C(c1cnccn1)N1CCN(Cc2c(-c3ccc(Cl)cc3Cl)nc3cnc(C4CC4)cn23)CC1 [Compound 273] ; what GLUT1 pIC50 value has been reported?
+++ (pIC50 ≧ 6.00)

Suppose we examine the molecule COc1ccccc1-c1ccc2nc(-c3ccc(Cl)cc3)c(CN3CCOCC3)n2c1 [Compound 85] ; what GLUT1 pIC50 value has been reported?
++ (pIC50 5.00-5.99)

Suppose we examine the molecule COc1cccc(-c2ccc3nc(-c4ccc(Cl)cc4)c(CN4CCOCC4)n3c2)c1 [Compound 84] ; what GLUT1 pIC50 value has been reported?
++ (pIC50 5.00-5.99)

Suppose we examine the molecule CC(C)(C)OC(=O)N1CCN(Cc2c(-c3ccc(Cl)cc3)nc3ccc(-c4ccccc4)cn23)CC1 [Compound 88] ; what GLUT1 pIC50 value has been reported?
+− (pIC50 < 4.00)

Suppose we examine the molecule CC(=O)N1CCN(Cc2c(-c3ccc(Cl)cc3)nc3ccc(N4CCCCS4(=O)=O)cn23)CC1 [Compound 326] ; what GLUT1 pIC50 value has been reported?
+++ (pIC50 ≧ 6.00)

Suppose we examine the molecule Cn1ccnc1C(=O)N1CCN(Cc2c(-c3ccc(Cl)cc3)nc3ccc(-c4ccccc4)cn23)CC1 [Compound 246] ; what GLUT1 pIC50 value has been reported?
++ (pIC50 5.00-5.99)

Suppose we examine the molecule CS(=O)(=O)Nc1ccc2nc(-c3ccc(Cl)cc3)c(CN3CCNC(=O)C3)n2c1 [Compound 289] ; what GLUT1 pIC50 value has been reported?
+++ (pIC50 ≧ 6.00)

Suppose we examine the molecule Clc1ccc(-c2nc3ccc(C4CC4)cn3c2CN2CCOCC2)cc1 [Compound 87] ; what GLUT1 pIC50 value has been reported?
++ (pIC50 5.00-5.99)

Suppose we examine the molecule CS(=O)(=O)Nc1ccc2nc(-c3ccc(Cl)cc3Cl)c(CN3CCNC(=O)C3)n2c1 [Compound 359] ; what GLUT1 pIC50 value has been reported?
+++ (pIC50 ≧ 6.00)

Suppose we examine the molecule CS(=O)(=O)c1ccc2nc(-c3ccc(Cl)cc3)c(CN3CCOCC3)n2c1 [Compound 379] ; what GLUT1 pIC50 value has been reported?
++ (pIC50 5.00-5.99)

Suppose we examine the molecule CCN(c1ccc2nc(-c3ccc(Cl)cc3)c(CN3CCN(C(C)=O)CC3)n2c1)S(C)(=O)=O [Compound 353] ; what GLUT1 pIC50 value has been reported?
+++ (pIC50 ≧ 6.00)
